- System: NCI-H23 lung
- protocol_details: NCI tumour cell line growth inhibition, 48 h
Known TGI of a selection of compounds
readout_label: TGI (µM)

compound	readout_label	censoring_operator	recorded_value
CCCCN1CCN(c2ccc3nc(-c4ccc5nc(-c6ccc(C(F)(F)F)cc6)[nH]c5c4)[nH]c3c2)CC1	TGI	=	3.42
Nc1c2ccccc2nc2c1ccc1ncccc12	TGI	=	75.6
COc1cc2c(cc1OCCCCOc1cc(-c3ccc(F)cc3)nc(C)n1)N=C[C@@H]1CCCN1C2=O	TGI	=	1.37
CCC(C(=O)O)c1ccc(OCc2ccccc2)cc1 (stereo unspecified)	TGI	>	100
CCC12C[N+]3([O-])CCc4c([nH]c5ccccc45)C(C(=O)OC)(c4cc5c(cc4OC)N(C)C4C(O)(C(=O)OC)C(OC(C)=O)C6(CC)C=CCN7CCC54C76)CC(C3)C1O2 (stereo unspecified)	TGI	=	8.49
CCCC[C@H](NC(=O)[C@H]1CCCN1C)C(=O)N(C)[C@H](C[C@@H](OC(C)=O)c1nc(C(=O)N[C@@H](Cc2ccccc2)C[C@H](C)C(=O)OCC)cs1)C(C)C	TGI	>	33.3
Oc1ccc(-c2nnc3sc(-c4ccc(F)cc4)nn23)cc1	TGI	=	84.9
COC(=O)[C@H](Cc1cn(C)cn1)NC(=O)[C@H](Cc1c[nH]c2ccccc12)NC(=O)Nc1cc(C(F)(F)F)cc(C(F)(F)F)c1	TGI	>	10
CCCCCCCCCCCCOC(=S)NCCCC	TGI	=	57.9
CCCCCCCCCc1cc(=O)c2ccc(OCc3ccccc3)cc2o1	TGI	>	100
O=c1cc(/C=C/c2ccc(O)c(O)c2)oc(/C=C/c2ccc(O)c(O)c2)c1	TGI	=	25.1

* * *

- System: TK-10 renal
- protocol_details: NCI tumour cell line growth inhibition, 48 h

molecule	TGI
Cc1cc(-c2nc3c(O)cccc3s2)ccc1N	74.8 µM
COP(=O)(O)/C=C/C(NC(=O)C(Cl)(Cl)Cl)c1ccccc1 (centres undefined)	> 100 µM
CCN(CC)CCOC(NC(C)=O)(c1ccccc1)c1ccccc1	> 100 µM
COC(=O)[C@]12CC[C@@H](C)[C@H](C)[C@@H]1C1=CC[C@@H]3[C@@]4(C)C[C@@H](OC(C)=O)[C@H](O)[C@@](C)(COC(C)=O)[C@@H]4[C@H](O)C[C@@]3(C)[C@]1(C)CC2	8.97 µM
COc1c2c(c3c(c1CCC(=O)O)OC(C)(C)C=C3)OC(C)(C)C=C2	> 100 µM
O=[N+]([O-])C(=C(N1CCCCC1)N1CCCCC1)/C(Cl)=C(\Cl)Br	72 µM
COc1ccccc1NC(=O)CC(=O)N1N=C(C)C(N=Nc2ccc(S(N)(=O)=O)cc2)C1=O (centres undefined)	> 100 µM
CCOP(=O)(OCC)C1C(CO)OC(n2ccc(=O)[nH]c2=O)C1O (centres undefined)	> 100 µM
Cc1ccccc1OC(C)C(=O)NN1C(=O)CC(=O)N(c2ccc(Cl)cc2)C1=S (centres undefined)	> 100 µM

* * *

- Test system: HOP-62 NSCLC
- protocol_details: NCI tumour cell line growth inhibition, 48 h
readout_label: TGI

> print(dat)
                                   compound  readout.label  recorded.value
1    CC1(C)C(c2ccccc2)=[N+]([O-])C(C)(C)N1O            TGI         > 10 µM
2        COCCN1C2=CCCCC2=Nc2c1nc(N)[nH]c2=O            TGI        > 100 µM
3               CC1=NCCc2c1[nH]c1cc(O)ccc21            TGI        > 100 µM
4  COC(=O)CCC(NC(=S)N/N=C(\C)c1nccs1)C(=O)OC (stereo unspecified)            TGI        > 100 µM
5  NC(=S)N/N=C(/CC(=O)c1ccccc1)C(=O)Nc1ccc(Cl)c(Cl)c1            TGI        > 100 µM
6  CN(C(=O)C12C3C4C5C3C1(C(=O)O)C5C42)C(C)(C)C (stereo unspecified)            TGI        > 100 µM
